Test system: LOX IMVI melanoma
Assay: NCI tumour cell line growth inhibition, 48 h
measure-name: TGI

{"molecule": "CCCCCCCCCCCCCCCCCC(=O)OCC(COC1OC(COP(=O)(O)O)C(O)C(O)C1O)OC(=O)CCCCCCCCCCCCCCCCC (stereo unspecified)", "TGI": "17.2 µM"}
{"molecule": "CC(C)CC(CC1=CCC2CC1C2(C)C)C1=C(O)C(C)(C)C(=O)C(C)(C)C1=O (stereo unspecified)", "TGI": "10.7 µM"}
{"molecule": "O[C@H]1CO[C@H]2[C@@H]1OC[C@@H]2Oc1ccc(Nc2ccnc(Nc3ccc(O[C@H]4CO[C@H]5[C@@H]4OC[C@@H]5O)c(Cl)c3)n2)cc1Cl", "TGI": "3.18 µM"}
{"molecule": "NC(=O)CCCC(NCc1c2ccccc2nc2ccccc12)C(=O)O (stereo unspecified)", "TGI": "> 100 µM"}
{"molecule": "CCCCCCc1cc(C(=O)Nc2cccc(C(F)(F)F)c2)nc(N)n1", "TGI": "> 100 µM"}
{"molecule": "CN(C)c1ccc(C=C2C(=O)OC(C)(C)OC2=O)cc1Br", "TGI": "> 100 µM"}
{"molecule": "O=C(Cn1c2c(c3ccccc31)CCCC2)NC1CCCCC1", "TGI": "> 100 µM"}
{"molecule": "C[C@]12CCC3[C@@H](CC[C@@H]4c5nonc5CC[C@]34C)C1CCC(=O)N2 (stereo partly specified)", "TGI": "> 100 µM"}
{"molecule": "O=C1C(=O)c2c(nc3ccc(Cl)cn23)-c2ccccc21", "TGI": "0.498 µM"}
{"molecule": "CN1CCN(Cc2ccc(NC(=O)c3cncc(C#Cc4cnc(N)c5ccncc45)c3)cc2C(F)(F)F)CC1", "TGI": "0.707 µM"}

Query string: I am curious: what TGI value has been reported for Cc1ccc(-c2nc3ccc(Cl)cc3[nH]2)cc1 ?
Result string: > 100 µM

Query string: Another molecule to look at: O=[N+]([O-])c1cccc(-c2nc3sccn3c2-c2ccnc(NCCCNS(=O)(=O)c3cccc(F)c3)n2)c1
Result string: 11 µM

Query string: Another molecule to look at: C=CC(=O)N1CCN(c2ccc3cccc(NC(=O)c4cnc(C)cn4)c3n2)CC1
Result string: 21.4 µM

Query string: Another molecule to look at: O=C(N=S(NC(=O)c1ccccc1)C(Cl)(Cl)Cl)c1ccccc1 (stereo unspecified)
Result string: 39.3 µM

Query string: Another molecule to look at: COCn1c2ccc(OC(C)=O)cc2c2c(=O)oc(N(C)C)nc21
Result string: > 100 µM

Query string: Another molecule to look at: CN1CCCCC1CCN1CCCCC1 (stereo unspecified)
Result string: > 100 µM

Query string: Another molecule to look at: O=c1cc(-c2cccc(Cl)c2)[nH]c2ncccc12
Result string: > 100 µM

###

Tested on: UACC-257 melanoma
Assay: NCI tumour cell line growth inhibition, 48 h
measure-name: TGI

Illustrative cases are given below, each with its answer.
{"compound": "C=C1CC2OC2(C(=O)O[C@H]2CCC3[C@@H]4CCC5=CC(=O)CC[C@]5(C)C4CC[C@@]32C)C1=O (stereo partly specified)", "TGI": "18.3 µM"}
{"compound": "O=C(c1ccccc1)C(CN1CCOCC1)c1ccccc1 (stereo unspecified)", "TGI": "3.13 µM"}
{"compound": "Cn1c(/C=C(\\O)c2ccc(Cl)cc2)nc2ccccc21", "TGI": "67.1 µM"}
{"compound": "COc1nc2c(c(=O)n1C)N(C(C)=O)C1C(N2)OCC(OC(C)=O)C1OC(C)=O (stereo unspecified)", "TGI": "> 10 µM"}
{"compound": "CC1=NN(c2ccccc2)C(=O)/C1=C/c1ccc(O)cc1", "TGI": "> 100 µM"}

Query string: I am curious: what TGI value has been reported for Cn1cnc2nc(Cl)nc(NC(C)(C)C(C)(C)O)c21 ?
Result string: > 100 µM

###

Tested on: ACHN renal
Experiment: NCI tumour cell line growth inhibition, 48 h; in the data active means GI50 below about 0.43 µM; inactive means the rest
API: response.call in active, inactive

Example cases with answers are listed next.
{"compound": "COc1cc2c(c(OC)c1OC)-c1ncc3cc(OC)c(OC)c(OC)c3c1C2", "class-name": "inactive"}
{"compound": "N#Cc1c(N/N=C/c2c(Cl)cccc2Cl)nc(N)nc1N1CCOCC1", "class-name": "inactive"}
{"compound": "CCCn1c(C)nc2c1C(=O)c1ccccc1C2=O", "class-name": "inactive"}
{"compound": "COc1cccc(C=Nc2cc(C)ccn2)c1O.COc1cccc(C=Nc2cc(C)ccn2)c1O.[Cu]", "class-name": "inactive"}
{"compound": "C/C(=N\\Nc1ccc2ccccc2n1)c1ccccn1", "class-name": "active"}

Query string: Hi team, can someone confirm the assay call for Cc1ccc(NC(=O)/C=C/c2ccccc2)c(C(N)=O)c1 ?
Result string: inactive

Query string: Another compound to look at: CC(CN1CCN(CCOCCO)CC1)CN1c2ccccc2Sc2ccc(Cl)cc21 (stereo not drawn)
Result string: inactive

Query string: Another compound to look at: O=C(c1ccccc1)C(CN1CCOCC1)c1ccccc1 (stereo not drawn)
Result string: inactive

Query string: Another compound to look at: COc1ccc2cc(-c3ccoc(=O)c3-c3cc(OC)c(OC)c(OC)c3)ccc2c1
Result string: inactive

Query string: Another compound to look at: COC(=O)Cn1c2c(c3c(O)cccc31)C(=O)c1ccccc1-2
Result string: inactive

Query string: Another compound to look at: CC(C)(C)c1ccc(OCCCCCCN2CCNCC2)cc1
Result string: inactive

Query string: Another compound to look at: COc1ccc(-c2n[nH]nc2-c2cc(OC)c3c(c2OC)OCO3)cc1
Result string: inactive

Query string: Another compound to look at: CN(C)c1ccc2c(c1)Sc1cc(N(C)C)ccc1N2C(=O)c1ccccc1
Result string: inactive

###

Tested on: HOP-18 NSCLC
Test: NCI tumour cell line growth inhibition, 48 h
measure-name: TGI

{"molecule": "O=c1cc(-c2ccccc2)[nH]c2cc(O)ccc12", "TGI": "> 100 µM"}
{"molecule": "CN(C)CCCNc1ccc2ncn3c4ccccc4c(=O)c1c23", "TGI": "68.4 µM"}
{"molecule": "CN(CCO)c1nc2c(c(=O)[nH]1)CCC2", "TGI": "> 100 µM"}
{"molecule": "CCCCNCC(=O)O[C@]1(CC)C(=O)OCc2c1cc1n(c2=O)Cc2cc3ccccc3nc2-1", "TGI": "48.9 µM"}
{"molecule": "O=C1C=C(Br)c2c(-c3ccccc3)oc3cccc1c23", "TGI": "> 100 µM"}
{"molecule": "Cc1c(C#N)c(=O)[nH]c(=O)n1CCN1CCN(C(=O)NCCCCCCNC(=O)N2CCN(CCn3c(C)c(C#N)c(=O)[nH]c3=O)CC2)CC1", "TGI": "> 100 µM"}

Query string: I am curious: what TGI value has been reported for CN(C)CCCNC(=O)N/N=C/c1cccc([N+](=O)[O-])c1 ?
Result string: > 100 µM

Query string: Another molecule to look at: CCOC(=O)C1=C(O)C(=O)c2ccsc2C1=O
Result string: > 100 µM

Query string: Another molecule to look at: CC(=O)OC1CCn2nnc(CO[Si](C)(C)C(C)(C)C)c21 (stereo unspecified)
Result string: > 100 µM

Query string: Another molecule to look at: Cc1cc(=O)[nH]c(NN2C(Cl)C(=O)C2c2ccc(Cl)cc2)n1 (stereo unspecified)
Result string: 23.2 µM

Query string: Another molecule to look at: CN(C)c1ccc(C=C2C(=O)OC(C)(C)OC2=O)cc1Br
Result string: > 100 µM

###

The following compounds are shown together with reported GI50 values.
Tested on: OVCAR-8 ovarian
Test: NCI tumour cell line growth inhibition, 48 h

{"compound": "COC1CC(OS(=O)(=O)c2ccc(C)cc2)C(OC(=O)c2ccccc2)C(C)O1 (stereo not drawn)", "GI50": "> 100 µM"}
{"compound": "O=C(/C(=C/c1ccccc1)CN1CCCCC1)c1ccccc1", "GI50": "0.616 µM"}
{"compound": "Cc1ccc(C2=NOC3=c4ccccc4=CSC3=C2c2ccc([N+](=O)[O-])cc2)cc1", "GI50": "6.22 µM"}

Proceeding to the next compound to report its GI50.
Query string: I am curious: what GI50 value has been reported for COC(=O)Cn1c2c(c3c(O)cccc31)C(=O)c1ccccc1-2 ?
Result string: > 100 µM

###

The following compounds are shown together with reported TGI values.
Tested on: MCF7 breast
Experiment: NCI tumour cell line growth inhibition, 48 h
Numbers only; they are read as µM.

Illustrative cases are given below, each with its answer.
{"substance-smiles": "COc1cccc(C=Nc2cc(C)ccn2)c1O.COc1cccc(C=Nc2cc(C)ccn2)c1O.[Cu]", "target-under-test": "MCF7 breast", "units": "µM", "TGI": 62.8}
{"substance-smiles": "Cc1ccc(-c2cc(-c3ccc(C)cc3)nc(NCCNc3ccnc4cc(Cl)ccc34)n2)cc1", "target-under-test": "MCF7 breast", "units": "µM", "TGI": 3.64}
{"substance-smiles": "CCCCCCNC(=O)c1cnc(Cl)cn1", "target-under-test": "MCF7 breast", "units": "µM", "TGI": 23.6}
{"substance-smiles": "O=C(O[C@H]1[C@@H](O)[C@H](n2cnc3c(Cl)ncnc32)O[C@@H]1COC(c1ccccc1)(c1ccccc1)c1ccccc1)c1ccccc1", "target-under-test": "MCF7 breast", "units": "µM", "TGI": 23.4}
{"substance-smiles": "Cc1ccc(C2=NOC3=c4ccccc4=CSC3=C2c2ccc([N+](=O)[O-])cc2)cc1", "target-under-test": "MCF7 breast", "units": "µM", "TGI": 88.8}
{"substance-smiles": "COc1ccc(-c2n[nH]nc2-c2cc(OC)c3c(c2OC)OCO3)cc1", "target-under-test": "MCF7 breast", "units": "µM", "TGI": 35.2}
{"substance-smiles": "COc1ccc(-c2cc(-c3ccccc3)nc(SCCCC(=O)NO)n2)cc1", "target-under-test": "MCF7 breast", "units": "µM", "TGI": 10}

Proceeding to the next compound to report its TGI.
Query string: I am curious: what TGI value has been reported for CC(=O)NC1=C(OS(=O)(=O)c2ccc(C)cc2)CN(C)C1=O ?
Result string: 11.7
